# Tested on: Human immunodeficiency virus 1
# MEASUREMENT_DESCRIPTION: Antiviral activity against HIV1 infected in human Jurkat cells assessed as inhibition of viral replication after 3 to 4 days
# Format: functional, organism-based
Active and inactive are the calls of the source. The rule behind the calls is not given here.

- COMPOUND: "NCCC(=O)NCCC(=O)Nc1ccc2c(c1)C(=O)c1ccc(NC(=O)CCNC(=O)CCN)cc1C2=O.O=C(O)C(F)(F)F.O=C(O)C(F)(F)F"
  Activity: "inactive"
- COMPOUND: "Nc1ccc(CC(N)C(=O)NCCC(=O)Nc2ccc3c(c2)C(=O)c2ccc(NC(=O)CCNC(=O)C(N)Cc4ccc(N)cc4)cc2C3=O)cc1.O=C(O)C(F)(F)F.O=C(O)C(F)(F)F.O=C(O)C(F)(F)F.O=C(O)C(F)(F)F (stereo not drawn)"
  Activity: "inactive"
- COMPOUND: "O=C(CCNC(=O)C1CCNCC1)Nc1ccc2c(c1)C(=O)c1ccc(NC(=O)CCNC(=O)C3CCNCC3)cc1C2=O.O=C(O)C(F)(F)F.O=C(O)C(F)(F)F"
  Activity: "inactive"
